Below, each entry is listed with its recorded TGI.
System: OVCAR-5 ovarian
assay-name: NCI tumour cell line growth inhibition, 48 h

Worked cases, TGI given:
Ask: Item under review: Cc1ccc(S(=O)(=O)SC(C)(C)C)cc1 . Reported TGI?
Result: > 76 µM

Ask: Using the record for CCCCCCCCCCCCCC[N+](C)(C)CCCCCCCCCCCCCC , report its TGI.
Result: 9.91 µM

Ask: Looking for the measured TGI of Cc1ccc(C(=O)Nc2ccc(CP(=O)(O)O)cc2CP(=O)(O)O)cc1NC(=O)Nc1cc(C(=O)Nc2ccc(CP(=O)(O)O)cc2CP(=O)(O)O)ccc1C , can you help?
Result: > 100 µM

Ask: # input compound: CC(C)(C)c1cc(OCc2nn3c(Cc4ccccc4)nnc3s2)c(Cl)cc1OCc1nn2c(Cc3ccccc3)nnc2s1 ; wanted: its TGI
Result: > 100 µM

Ask: // lookup TGI for CC(=O)Oc1c(-c2ccccc2)sc2ccccc12
Result: 61.5 µM

---
Ask: Please look up its TGI: COC(=O)c1c(O)ccc2[nH]c3c(O)c4ccccc4cc3c12
Result: > 100 µM

----------
System: HOP-62 NSCLC
assay-name: NCI tumour cell line growth inhibition, 48 h
parameter-measured: TGI

Ask: Fill in the blank: the reported TGI of NC(=O)c1cc([N+](=O)[O-])c(Cl)c([N+](=O)[O-])c1Cl is ____.
Result: 3.16 µM

Further cases:
Ask: Consider the compound shown here: O=c1[nH]c2ccccc2nc1/C=C(\O)c1ccccc1O What is its recorded TGI?
Result: > 100 µM

Ask: Bench note: what TGI did C[CH2][Ge]([CH2]C)([CH2]C)[O]C(=O)C(OC(C)=O)c1ccccc1 (stereo not drawn) show?
Result: > 100 µM

Ask: I would be grateful if you could share the reported TGI for O=C(N=c1ccc2nc(=O)[nH]n(O)c-2c1)C(F)(F)F .
Result: > 100 µM

Ask: Look at this compound and give its reported TGI. CC1(C)CNc2cc(NC(=O)c3cccnc3NCc3ccncc3)ccc21
Result: > 100 µM

Ask: Which TGI value belongs to Cn1ncc2c(Cl)ncnc21 ?
Result: > 100 µM

----------
Test system: T-47D breast
assay-name: NCI tumour cell line growth inhibition, 48 h
Some compounds, each annotated with its measured TGI.
Report only the number, with the unit µM understood.

Ask: Form field: reported TGI of CCC(C)[C@H](NC(=O)Nc1cc(C(F)(F)F)cc(C(F)(F)F)c1)C(=O)N[C@@H](Cc1cn(C)cn1)C(=O)OC (stereo not given in full)
Result: 1.74

Next item in the queue.
Ask: Looking for the measured TGI of OC(COC(c1ccccc1)(c1ccccc1)c1ccccc1)C(O)CC1SCCS1 (stereo not given) , can you help?
Result: 58.3

----------
Tested on: 786-0 renal
assay-name: NCI tumour cell line growth inhibition, 48 h
parameter-measured: TGI (µM)
# number only, unit µM dropped from output

Below, each entry is followed by its recorded TGI result.
Ask: I'd like to know its TGI. The molecule in question is COC(=O)c1ccc(CN2C(=O)C(Cl)=C(Nc3cccc(Cl)c3C)C2=O)cc1
Result: 51.5

Ask: Given the molecule NC(=O)c1cc([N+](=O)[O-])c(Cl)c([N+](=O)[O-])c1Cl , what is its reported TGI?
Result: 2.87

Ask: I am curious: what TGI value has been reported for O=C(CCC=C(S(=O)(=O)c1ccccc1)S(=O)(=O)c1ccccc1)c1ccccc1 ?
Result: 11.8

Ask: # get_value(readout='TGI', item= CNC(=O)c1c(NC(=O)c2ccc(C(C)(C)C)cc2)sc2c(CN(C)C)c(O)ccc12 )
Result: 3.3

Ask: For CC(=O)Oc1ccc2c(c1)CC[C@@H]1C2[C@@H](O[N+](=O)[O-])C[C@@]2(C)C1CC[C@@H]2O[N+](=O)[O-] (stereo partly drawn) , what is its reported TGI?
Result: 28.4

Next up:
Ask: Entry CC1C(C)N(C(=O)CCl)c2ccccc2N1C(=O)CCl (stereo not drawn) has what TGI?
Result: 3.02

Source of measurements: PubChem BioAssay (NCI)
